TARGET SYSTEM: T1, human CD3e/d complex on cells transiently transfected with pOPT-CD3e/d-hum-mix (human, UniProt P07766 23-126; P04234 22-171)
T1 construct: Tagged screening constructs
T1 sequence (P07766 23-126 limits assumed, chain 1 of 2): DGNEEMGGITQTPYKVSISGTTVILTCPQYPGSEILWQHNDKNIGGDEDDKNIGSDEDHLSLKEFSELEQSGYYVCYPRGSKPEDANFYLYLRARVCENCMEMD
T1 sequence (P04234 22-171 limits assumed, chain 2 of 2): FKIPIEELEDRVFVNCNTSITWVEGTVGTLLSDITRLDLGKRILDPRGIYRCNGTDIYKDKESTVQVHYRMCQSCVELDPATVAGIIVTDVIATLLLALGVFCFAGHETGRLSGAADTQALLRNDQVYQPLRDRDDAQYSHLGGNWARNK
METHOD SUMMARY: CELISA, hybridoma supernatant
Procedure: Hybridoma supernatants from fusions BLW (with magnetic bead depletion of lymphocytes) and BLX (without magnetic bead depletion of lymphocytes) were analyzed a) by a cell-based ELISA (CELISA) on cells transiently transfected with human and cynomolgus cDNA cloned into screening vectors: pOPT-CD3e-hum-epsilon-TCE.OMT+pOPT-CD3d-hum-delta.OMT, 1:1 (pOPT-CD3e/d-hum-mix) and pcDNA3.1-CD3e-cyn-[…]+pcDNA3.1-CD3d-cyn-delta, 1:1 (pcDNA3.1-CD3e/d-cyn-mix). […]
ASSAY READOUT: % positive (%)
# number only, unit % dropped from output

I have this binder here, BLW-3B4 (antibody, V domains shown, OmniRat hybridoma supernatant: human V regions on rat constant regions; also called V regions cloned as CD3B313 (CD3H218/CD3L125)) VH: QVQLQQSGPGLVKPSQTLSLTCAISGDSVFNNNAAWSWIRQSPSRGLEWLGRTYYRSKWLYDYAVSVKSRITVNPDTSRNQFTLQLNSVTPEDTALYYCVRGYSSSFDYWGQGTLVTVSS VL: QSALTQPASVSGSPGQSITISCTGTSRDIGTYKFVSWYQQHPDKAPKVLLYEVSKRPSGVSSRFSGSKSGNTASLTISGLQAEDQADYHCCSYAGSGTLLFGGGTKLTVL , and I need its recorded % positive. 127
